Record form. Attribute: solubility. Fill in for each entry.
ASSAY_DETAILS: Compound solubility in water
Give the value in mg/mL but do not write mg/mL after it.

Documented solubility of CCCCNC(=O)n1cnc2c(OC)cccc21 : 0.0232

For reference, reported solubility for COc1nc2ccc(N3CCOCC3)cc2n1C(=O)NCCc1ccccc1 [28 & 29a] stands at 0.018

For CC(C)CCNC(=O)n1cnc2c(N3CCOC[C@@H]3C)cccc21 the compound record lists solubility as 0.023

Noted for O=C(NC1CCCCC1)n1cnc2c(N3CCOCC3)cccc21 : its solubility reads 0.015

Input CN1CCN(c2cccc3c2ncn3C(=O)NCc2ccc3c(c2)OCO3)CC1 . Output solubility: 0.011

For COc1nc2cc(N3CCOCC3)ccc2n1C(=O)NCCCCn1ccc(C(C)(C)C)n1 [Example 188a] the compound record lists solubility as 0.027

The recorded solubility for entry CC(C)CCNC(=O)n1cnc2c(N3CCO[C@@H](C(C)C)C3)cccc21 [Example 172a] equals 0.004

// solubility lookup, compound = O=C(NCCOc1ccccc1)n1cnc2c(F)cccc21 , result: 0.0027

The compound listed as CC(C)C#CCNC(=O)n1cnc2c(N3CCN(C)C(CC#N)C3)cccc21 (stereo not shown) shows solubility equal to 0.023

Lab book: solubility of CN(C)C1CN(c2cccc3c2ncn3C(=O)NCCOc2ccccc2)C1 noted as 0.016

For record CCC(C)CNC(=O)n1c(OC)nc2c(OC)cccc21 (stereo not shown) the listed solubility is 0.0234

Noted for O=C(NCCOc1ccc(F)cc1)n1cnc2ccccc21 : its solubility reads 0.0043

# solubility of O=C(NCCc1ccccc1)n1cnc2cc(-c3ccccn3)c(Cl)cc21 = 0.0004

So for COCCOc1nc2cc(N3CCOCC3)ccc2n1C(=O)NCCCc1ccccc1 [Example 190a] , the logged solubility turned out to be 0.017

GET /value?item= O=C(NCCOc1ccccc1)n1cnc2ccc(C(F)(F)F)cc21 [Example 46b] &field=solubility returns 0.0003

Record O=C(NCCc1ccccc1)n1cnc2ccc(N3CCOCC3)cc21 [Example 14b] . Reported solubility: 0.0312

solubility recorded for this compound, COc1nc2c(N3CCC(F)(F)CC3)cccc2n1C(=O)NCCC(C)C , is 0.0012

get_value(item= CC(C)CCNC(=O)n1cnc2c(N3CCOCC3)cccc21 , readout=solubility) returns 0.021

The compound listed as Cn1c(=O)n(C(=O)NCCc2ccccc2)c2ncccc21 has a reported solubility of 0.0264

###

Please provide measured log10 of solubility for the entries that follow.
ASSAY_DETAILS: Compound solubility in water
Short version: log10 scale, solubility, µg/mL.

The recorded log10 of solubility for CN1CCN(c2cccc3c2ncn3C(=O)NCC2Oc3ccccc3O2)CC1 is 1.60

The recorded log10 of solubility for COc1nc2ccc(-c3cccnc3)cc2n1C(=O)NCCc1ccccc1 [Example 30b] is 0.59

For reference, reported log10 of solubility for N#Cc1cccc2c1ncn2C(=O)NCCOc1ccccc1 stands at 0.77

Per the records, this compound ( CN1CC(c2cccc3c2ncn3C(=O)NCCCc2ccccc2)C1 ) has log10 of solubility equal to 1.51

Reported log10 of solubility for O=C(NCCc1ccccc1)n1cnc2ccc(-c3cncnc3)cc21 was 1.16

Memo: COc1cc2c(cc1N1CCOCC1)ncn2C(=O)NCCc1ccccc1 [Example 38b] , reported log10 of solubility: 1.26

So, Cn1c(=O)n(C(=O)NCCc2ccccc2)c2cc(-c3cncnc3)ccc21 [Example 32a] ? Its log10 of solubility was -0.05

// O=C(NCCc1ccccc1)n1cnc2c(N3CCN(C4COC4)CC3)cccc21 : log10 of solubility value = 1.32

Noted for CC(C)CCNC(=O)n1cnc2ccccc21 : its log10 of solubility reads 1.14

Measured log10 of solubility of O=C(NCCOCc1ccccc1)n1cnc2ccccc21 : 1.25

log10 of solubility for O=C(NCCc1ccccc1)n1cnc2cc(-c3cncnc3)ccc21 is 0.57

log10 of solubility in this record for Cn1c(=O)n(C(=O)NCCc2ccccc2)c2cccnc21 : 1.17

Measured log10 of solubility of CN1CCN(C2CN(c3cccc4c3ncn4C(=O)NCCCc3ccccc3)C2)CC1 : 1.45

Per the record, COc1nc2cc(-c3cccnc3)cnc2n1C(=O)NCC(C)C has log10 of solubility of 1.23

Record summary for CCC#CCNC(=O)n1cnc2c(N3CCN(C)CC3)cccc21 : reported log10 of solubility = 1.43

Just so you know, measured log10 of solubility for CC(C)C#CCNC(=O)n1cnc2c(N3CC(N4CCN(C)CC4)C3)cccc21 came out at 1.43

The compound listed as CC(C)C#CCNC(=O)n1cnc2c(N3CCC4(CCCN4C)CC3)cccc21 shows log10 of solubility equal to 1.49

Recorded log10 of solubility (compound CC(C)CCNC(=O)n1cnc2c(N3CCN(C4CCOCC4)CC3)cccc21 ): 1.48

Value of measured log10 of solubility for the entry O=C(NCCOc1ccccc1)n1cnc2c(N3CCN(C4COC4)CC3)cccc21 : 1.40
